# System: ECHCG
# Measurement Protocol: Pre-emergence action against ECHCG, 1280 g/ha
# Assay type: in vivo, Echinochloa crus-galli
# Experimental Setup: visual scoring after about 3 weeks vs untreated controls, 100% = plants have died, 0% = like control plants
Metric: Pre-emergence action against ECHCG (%)

Compound | Units Label | Experimental Value
CCOC(=O)C(C)Oc1nn(-c2ccccc2F)c(-c2ccc(F)nc2)c1I (stereo not drawn) | % | 100
O=C(O)COc1nn(-c2ccccc2F)c(-c2ccnnc2)c1Br | % | 100
COC(=O)CCOC(=O)COc1nn(-c2ccccc2F)c(-c2ccc(F)nc2)c1Br | % | 100
O=C(O)COc1nn(-c2ccccc2F)c(-c2cnccn2)c1Br | % | 90
Cc1ccccc1-n1nc(OCC(=O)O)c(I)c1-c1ccc(F)nc1 | % | 100
CCOC(=O)COc1nn(-c2ccccc2F)c(-c2cnccn2)c1Br | % | 90
CON(C)C(=O)COc1nn(-c2ccc(F)cc2F)c(-c2ccc(F)nc2)c1Br | % | 100
O=C(COc1nn(-c2ccccc2F)c(-c2cncnc2)c1Br)OCc1ccccc1 | % | 100
COC(=O)C(C)Oc1nn(-c2ccccc2)c(-c2ccc(F)nc2)c1Br (stereo not drawn) [VII-026] | % | 90
O=C(O)C1CCCN1C(=O)COc1nn(-c2ccccc2F)c(-c2ccc(F)nc2)c1Br (stereo not drawn) | % | 100
COC(=O)[C@@H](C)Oc1nn(-c2ccccc2)c(-c2cncnc2)c1Br | % | 100
COC(=O)COc1nn(-c2c(F)cccc2F)c(-c2ccc(F)nc2)c1C#N | % | 100
O=C(O)C1CCCN1C(=O)COc1nn(-c2ccccc2F)c(-c2cncc(F)c2)c1Br (stereo not drawn) | % | 90
O=C(O)CNC(=O)COc1nn(-c2ccccc2F)c(-c2ccc(F)nc2)c1Br | % | 100
Cc1ccc(-n2nc(OCC(=O)O)c(Br)c2-c2ccc(F)nc2)cc1 | % | 100
COC(=O)COc1nn(-c2ccccc2)c(-c2ccc(F)nc2)c1Br | % | 100
COC(=O)[C@H](C)Oc1nn(-c2cc(F)ccc2F)c(-c2ccc(F)nc2)c1Br | % | 90
CC(Oc1nn(-c2ccccc2F)c(-c2ccc(F)nc2)c1Br)C(=O)O (stereo not drawn) | % | 100

###

# System: ALOMY
# Measurement Protocol: Post-emergence action against ALOMY, 320 g/ha
# Type: in vivo, Alopecurus myosuroides
# Experimental Setup: dosage 320 g/ha, visual rating about 3 weeks after treatment vs untreated controls (100% = plants died)
Metric: Post-emergence action against ALOMY (%)

Molecule | Study Target | Experimental Value
C=CCNC(=O)COc1nn(-c2ccccc2F)c(-c2ccc(F)nc2)c1Br | ALOMY | 90
CCOC(=O)C(C)Oc1nn(-c2ccccc2F)c(-c2ccc(F)nc2)c1I (stereo not drawn) | ALOMY | 80
CCOC(=O)C(C)Oc1nn(-c2ccccc2F)c(-c2ccc(F)nc2)c1C(F)(F)F (stereo not drawn) | ALOMY | 90
COC(=O)COc1nn(-c2ccccc2F)c(-c2ccc(F)nc2)c1Br | ALOMY | 90
COC(=O)[C@@H](C)Oc1nn(-c2cc(F)ccc2F)c(-c2ccc(F)nc2)c1Br | ALOMY | 90
COC(=O)[C@@H](C)Oc1nn(-c2cc(F)ccc2F)c(-c2cncc(F)c2)c1C#N | ALOMY | 90
CCOC(=O)C(C)Oc1nn(-c2ccccc2F)c(-c2ccc(F)nc2)c1Br (stereo not drawn) | ALOMY | 100
COC(=O)[C@@H](C)Oc1nn(-c2ccccc2F)c(-c2ccc(F)nc2)c1Br | ALOMY | 90
COC(=O)C(C)Oc1nn(-c2ccccc2)c(-c2ccnc(Cl)c2)c1Cl (stereo not drawn) | ALOMY | 90
